tested on: GP2D cells; assay: GP2D proliferation assay (120 h) (colorectal cancer, G12D); type: cell-based
Each entry below lists one item and its recorded IC50 value.

>  <smiles_representation>
C[C@H](Oc1cc(N2CCN(C)C3(CC3)C2)nc(-c2noc3c2CCC[C@@]32CCCc3sc(N)c(C#N)c32)n1)[C@@H]1CCCN1C

>  <IC50>
5 nM

$$$$

*Q* Query (molecule): `C[C@H](Oc1cc(-c2ccn(C)n2)nc(-c2onc3c2CCC[C@@]32CCCc3sc(N)c(C#N)c32)n1)[C@@H]1CCCN1C` ; field requested: IC50
*A* 546 nM

*Q* Query (molecule): `CO[C@@H]1C[C@@H]([C@H](C)Oc2cc(N3CCN(C)C4(CC4)C3)nc(-c3onc4c3CCC[C@@]43CCCc4sc(N)c(C#N)c43)n2)N(C)C1` ; field requested: IC50
*A* 10 nM
